assay: Effect of concentration on the stability of the solution (purity over time); conditions: 15 wt %; in water at 25° C.

# Compound, Purity at Day 28 [%]
measured = [
    ("CCN(CC)CCOC(=O)[C@H](C)c1ccc2cc(OC)ccc2c1.Cl (racemic)", 97.6),
    ("CCN(CC)CCOC(=O)Cc1sc(-c2ccccc2)nc1-c1ccc(Cl)cc1.Cl", 97.8),
    ("CCN(CC)CCOC(=O)Cc1ccc(C(=O)c2ccc(C)cc2)n1C.Cl", 96.8),
    ("CCN(CC)CCOC(=O)Cc1c(C)n(C(=O)c2ccc(Cl)cc2)c2ccc(OC)cc12.Cl", 97.5),
    ("CCN(CC)CCOC(=O)CCc1nc(-c2ccccc2)c(-c2ccccc2)o1.Cl", 97.5),
    ("CCN(CC)CCOC(=O)CCc1ccc2cc(OC)ccc2c1.Cl", 97.6),
    ("CCN(CC)CCOC(=O)CC1=C(C)C(=Cc2ccc([S+](C)[O-])cc2)c2ccc(F)cc21.Cl (centres unmarked)", 96.8),
    ("CCN(CC)CCOC(=O)C(C)c1ccc2oc(-c3ccc(Cl)cc3)nc2c1.Cl (centres unmarked)", 97.5),
]

====

Items are presented alongside their recorded Purity (%) at hr 24.
assay: Effect of concentration on the stability of the solution (purity over time); conditions: 5 wt % in 50% ethanol, 25° C.

# Molecule, Purity (%) at hr 24
data = [
    ("CCOC(=O)c1ccccc1 [Ethyl benzoate, reference compound]", 97.8),
    ("CC(C)(C)OC(=O)c1ccccc1 [t-Butyl benzoate, reference compound]", 20.3),
    ("CC(C)OC(=O)c1ccccc1 [Isopropyl benzoate, reference compound]", 98.4),
    ("CC(C)(C)OC(=O)C(N)Cc1ccccc1 (centres unmarked) [t-Butyl 2-amino-3-phenylpropanoate, reference compound]", 97.0),
    ("CC(C)OC(=O)C(N)Cc1ccccc1 (centres unmarked) [Isopropyl 2-amino-3-phenylpropanoate, reference compound]", 98.6),
]

====

assay: Effect of concentration on the stability of the solution (purity over time); conditions: 1 wt %; in water at 25° C.

# Compound, Value Unit, Purity at hr 0
measured = [
    ("CCN(CC)CCOC(=O)CCc1nc(-c2ccccc2)c(-c2ccccc2)o1.Cl", "%", 98.0),
    ("CCN(CC)CCOC(=O)CC1=C(C)C(=Cc2ccc([S+](C)[O-])cc2)c2ccc(F)cc21.Cl (stereo not shown)", "%", 97.3),
    ("CCN(CC)CCOC(=O)CCc1ccc2cc(OC)ccc2c1.Cl", "%", 98.1),
    ("CCN(CC)CCOC(=O)Cc1sc(-c2ccccc2)nc1-c1ccc(Cl)cc1.Cl", "%", 98.7),
    ("CCN(CC)CCOC(=O)C(C)c1ccc2oc(-c3ccc(Cl)cc3)nc2c1.Cl (stereo not shown)", "%", 98.1),
    ("CCN(CC)CCOC(=O)Cc1c(C)n(C(=O)c2ccc(Cl)cc2)c2ccc(OC)cc12.Cl", "%", 98.3),
    ("CCN(CC)CCOC(=O)Cc1ccc(C(=O)c2ccc(C)cc2)n1C.Cl", "%", 97.7),
]

====

Measured Purity at Day 3 accompanies every entry in the list below.
assay: Effect of concentration on the stability of the solution (purity over time); conditions: 0.1 wt %; in water at 25° C.
Measurement Kind: Purity at Day 3 (%)

# Molecule, Measurement Kind, Value Unit, Measured Number
data = [
    ("CCN(CC)CCOC(=O)CC1=C(C)C(=Cc2ccc([S+](C)[O-])cc2)c2ccc(F)cc21.Cl (stereo not shown)", "Purity at Day 3", "%", 95.7),
    ("CCN(CC)CCOC(=O)Cc1ccc(C(=O)c2ccc(C)cc2)n1C.Cl", "Purity at Day 3", "%", 95.6),
    ("CCN(CC)CCOC(=O)C(C)c1ccc2oc(-c3ccc(Cl)cc3)nc2c1.Cl (stereo not shown)", "Purity at Day 3", "%", 96.7),
    ("CCN(CC)CCOC(=O)Cc1c(C)n(C(=O)c2ccc(Cl)cc2)c2ccc(OC)cc12.Cl", "Purity at Day 3", "%", 96.3),
    ("CCN(CC)CCOC(=O)Cc1sc(-c2ccccc2)nc1-c1ccc(Cl)cc1.Cl", "Purity at Day 3", "%", 96.7),
    ("CCN(CC)CCOC(=O)CCc1ccc2cc(OC)ccc2c1.Cl", "Purity at Day 3", "%", 96.7),
    ("CCN(CC)CCOC(=O)CCc1nc(-c2ccccc2)c(-c2ccccc2)o1.Cl", "Purity at Day 3", "%", 94.7),
]
